Value source: ChEMBL document CHEMBL1152129

Measured Ratio IC50, listed per entry for reference.
organism: Homo sapiens; test: Selectivity ratio of IC50 for human recombinant MAOA to IC50 for human recombinant MAOB

{"columns": ["Molecule", "Op", "Ratio IC50"],
 "data": [
  ["Cc1cc(=O)oc2c(C)c(OC3CCCCC3=O)ccc12 (configuration not stated)", "=", 0.1],
  ["O=c1oc2cc(O)ccc2c2c1CCC2", "<", 0.48],
  ["O=C1CCCCC1Oc1ccc2ccc(=O)oc2c1 (configuration not stated)", "<", 0.43],
  ["COc1c(OCC(C)=O)ccc2c1oc(=O)c1ccccc12", "=", 1.27],
  ["COc1c2ccc(=O)oc2cc2occ(C)c12", "=", 0.98],
  ["C=C(Br)COc1ccc2c3c(c(=O)oc2c1C)CCCC3", "=", 2.94],
  ["Cc1cc(=O)oc2c(C)c3oc4c(c3cc12)CCC4", "=", 0.45]
]}
